- experimental target: T1, alpha-2 macroglobulin (in human plasma) (human, UniProt P01023 24-1474)
- T1 construct: Not purified: the endogenous protein of the plasma
- T1 sequence (looked up): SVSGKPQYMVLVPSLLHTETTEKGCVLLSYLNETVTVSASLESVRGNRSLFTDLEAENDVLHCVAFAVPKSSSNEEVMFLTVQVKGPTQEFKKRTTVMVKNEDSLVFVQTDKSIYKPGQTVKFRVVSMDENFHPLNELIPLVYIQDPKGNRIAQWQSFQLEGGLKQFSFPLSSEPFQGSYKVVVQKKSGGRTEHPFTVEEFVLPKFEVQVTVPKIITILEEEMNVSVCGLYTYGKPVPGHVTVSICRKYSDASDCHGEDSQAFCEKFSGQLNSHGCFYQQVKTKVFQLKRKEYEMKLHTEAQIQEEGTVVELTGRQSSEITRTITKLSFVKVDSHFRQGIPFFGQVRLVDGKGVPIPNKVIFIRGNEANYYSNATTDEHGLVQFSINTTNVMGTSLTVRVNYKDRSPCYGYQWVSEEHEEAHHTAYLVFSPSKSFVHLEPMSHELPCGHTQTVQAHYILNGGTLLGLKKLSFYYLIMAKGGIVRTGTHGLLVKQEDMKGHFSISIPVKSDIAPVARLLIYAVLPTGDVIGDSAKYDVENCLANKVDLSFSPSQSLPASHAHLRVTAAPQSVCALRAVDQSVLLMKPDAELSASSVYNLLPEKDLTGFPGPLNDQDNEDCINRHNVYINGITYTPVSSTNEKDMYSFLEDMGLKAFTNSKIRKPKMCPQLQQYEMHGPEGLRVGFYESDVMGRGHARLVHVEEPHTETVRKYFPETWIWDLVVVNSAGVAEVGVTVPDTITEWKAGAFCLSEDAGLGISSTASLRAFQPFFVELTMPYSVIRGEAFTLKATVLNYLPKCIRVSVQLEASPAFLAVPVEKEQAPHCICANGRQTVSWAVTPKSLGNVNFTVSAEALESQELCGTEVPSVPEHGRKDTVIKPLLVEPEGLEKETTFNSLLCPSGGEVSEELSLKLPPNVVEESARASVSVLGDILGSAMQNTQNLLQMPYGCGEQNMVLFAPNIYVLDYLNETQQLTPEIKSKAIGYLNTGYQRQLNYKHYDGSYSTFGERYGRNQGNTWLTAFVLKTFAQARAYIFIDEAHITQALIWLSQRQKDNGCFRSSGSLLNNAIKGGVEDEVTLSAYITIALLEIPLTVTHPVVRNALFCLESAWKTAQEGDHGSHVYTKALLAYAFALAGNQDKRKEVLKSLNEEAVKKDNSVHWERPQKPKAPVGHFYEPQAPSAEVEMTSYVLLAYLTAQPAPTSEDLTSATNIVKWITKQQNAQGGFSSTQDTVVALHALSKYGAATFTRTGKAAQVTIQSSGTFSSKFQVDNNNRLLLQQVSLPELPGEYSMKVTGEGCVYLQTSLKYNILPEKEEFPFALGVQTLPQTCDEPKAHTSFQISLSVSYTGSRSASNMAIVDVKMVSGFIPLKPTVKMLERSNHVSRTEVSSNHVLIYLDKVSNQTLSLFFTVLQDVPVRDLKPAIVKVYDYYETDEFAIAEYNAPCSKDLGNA
- measurement protocol: Ac-RQAR-AMC activity of protease after 5 min in human citrated plasma, with and without M84R ecotin
quantity kind: % Unbound by a2M (%)
Give bare numbers, in %.

Example results:
modified MT-SP1 CB483 (I41T/Y146D/G151L/Q175D/K224N) protease domain (enzyme) VVGGTDADEGEWPWQVSLHALGQGHTCGASLISPNWLVSAAHCYIDDRGFRYSDPTQWTAFLGLHDQSQRSAPGVQERRLKRIISHPFFNDFTFDYDIALLELEKPAEYSSMVRPICLPDASHVFPAGKAIWVTGWGHTQDGGTLALILQKGEIRVINQTTCENLLPQDITPRMMCVGFLSGGVDSCQGDSGGPLSSVEADGRIFQAGVVSWGDGCAQRNNPGVYTRLPLFRDWIKENTGV; 73
modified MT-SP1 CB421 (I41T/Y146D/Q175D/K224F) protease domain (enzyme) VVGGTDADEGEWPWQVSLHALGQGHTCGASLISPNWLVSAAHCYIDDRGFRYSDPTQWTAFLGLHDQSQRSAPGVQERRLKRIISHPFFNDFTFDYDIALLELEKPAEYSSMVRPICLPDASHVFPAGKAIWVTGWGHTQDGGTGALILQKGEIRVINQTTCENLLPQDITPRMMCVGFLSGGVDSCQGDSGGPLSSVEADGRIFQAGVVSWGDGCAQRNFPGVYTRLPLFRDWIKENTGV; 84

% Unbound by a2M reported for this binder modified MT-SP1 CB486 (I41T/Y146E/Q175D/K224R) protease domain (enzyme) VVGGTDADEGEWPWQVSLHALGQGHTCGASLISPNWLVSAAHCYIDDRGFRYSDPTQWTAFLGLHDQSQRSAPGVQERRLKRIISHPFFNDFTFDYDIALLELEKPAEYSSMVRPICLPDASHVFPAGKAIWVTGWGHTQEGGTGALILQKGEIRVINQTTCENLLPQDITPRMMCVGFLSGGVDSCQGDSGGPLSSVEADGRIFQAGVVSWGDGCAQRNRPGVYTRLPLFRDWIKENTGV : 44
